# Test system: Neuregulin-1 EGF-like domain
# measurementDescription: binders of neuregulin-1 EGF-like domain, primary screen, biochemical, small-molecule microarray, 635 nm fluorescence (AID 1081);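 also: binding of the protein to compounds printed on small-molecule microarray slides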
# assaySetup: small-molecule microarray binding, higher = more signal
measuredParameter: composite z-score

INSERT INTO measurements (structureassmiles, measuredparameter, recordednumber) VALUES
  ('COC(=O)[C@@H]1CC[C@H](C)[C@@H](c2ccc(C)cc2)N1C(=O)c1ccc(C=NOC[C@@H](O)COCc2ccco2)cc1', 'composite z-score', -1.04),
  ('CCCNC(=O)[C@@H]1c2ccccc2C(=O)N(Cc2ccccc2Cl)[C@H]1c1ccc(CO)cc1', 'composite z-score', 1.21),
  ('CO[C@H]1COC(=O)[C@@H]2CCCN2C(=O)CC=C[C@@H](C)[C@H](OC)COC(=O)CC=C[C@@H]1C', 'composite z-score', 0.659),
  ('C=C(/C(=C/C[C@H](OC(=O)c1ccncc1)c1ccc(OCCO)cc1)c1cnc2ccccc2c1)C(C)C', 'composite z-score', 1.13);
